Ki: recorded values
- tgt: hCA I (Homo sapiens, UniProt P00915)
- Construct: gene CA1; recombinant, obtained in-house
- Sequence (P00915 2-261): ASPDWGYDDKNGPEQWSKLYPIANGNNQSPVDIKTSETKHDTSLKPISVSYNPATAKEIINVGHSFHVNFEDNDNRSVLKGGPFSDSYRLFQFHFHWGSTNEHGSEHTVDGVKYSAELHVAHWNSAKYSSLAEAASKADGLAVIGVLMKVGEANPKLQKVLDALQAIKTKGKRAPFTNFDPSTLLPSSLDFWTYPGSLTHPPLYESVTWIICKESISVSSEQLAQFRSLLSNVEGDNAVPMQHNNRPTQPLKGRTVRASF
- assay: stopped-flow CO2 hydration assay
- Format: biochemical
- cond: CO2 […], […] HEPES pH […] NaClO4, […] h preincubation at room temperature; read-out: KI (μM)^a,b / hCA I

CCOP1(=O)CC=Cc2cccc(OC)c2O1 (stereo not shown) ... > 100 µM
CCOP1(=O)CC=Cc2cc(I)ccc2O1 (stereo not shown) ... > 100 µM
CCOP1(=O)CC=Cc2cc(Br)ccc2O1 (stereo not shown) ... > 100 µM
CCOP1(=O)CC=Cc2cc([N+](=O)[O-])ccc2O1 (stereo not shown) ... > 100 µM

May I ask what Ki has been recorded for O=P1(O)CC=Cc2cc(Br)ccc2O1 ?
> 100 µM

May I ask what Ki has been recorded for O=P1(O)CC=Cc2cc(Cl)cc(Cl)c2O1 ?
> 100 µM

May I ask what Ki has been recorded for CCOP1(=O)CC=Cc2ccccc2O1 (stereo not shown) ?
> 100 µM

May I ask what Ki has been recorded for O=P1(O)CC=Cc2cccc(Br)c2O1 ?
> 100 µM

May I ask what Ki has been recorded for COc1cccc2c1OP(=O)(O)CC=C2 ?
> 100 µM

May I ask what Ki has been recorded for O=P1(O)CC=Cc2cc(I)ccc2O1 ?
> 100 µM

May I ask what Ki has been recorded for CCOP1(=O)CC=Cc2cccc(Br)c2O1 (stereo not shown) ?
> 100 µM

May I ask what Ki has been recorded for CCOP1(=O)CC=Cc2cc(Cl)cc(Cl)c2O1 (stereo not shown) ?
> 100 µM

May I ask what Ki has been recorded for O=[N+]([O-])c1ccc2c(c1)C=CCP(=O)(O)O2 ?
> 100 µM

* * *

- tgt: hCA XII (Homo sapiens)
- Construct: gene CA12; recombinant, obtained in-house
- Sequence (O43570 25-354 limits assumed): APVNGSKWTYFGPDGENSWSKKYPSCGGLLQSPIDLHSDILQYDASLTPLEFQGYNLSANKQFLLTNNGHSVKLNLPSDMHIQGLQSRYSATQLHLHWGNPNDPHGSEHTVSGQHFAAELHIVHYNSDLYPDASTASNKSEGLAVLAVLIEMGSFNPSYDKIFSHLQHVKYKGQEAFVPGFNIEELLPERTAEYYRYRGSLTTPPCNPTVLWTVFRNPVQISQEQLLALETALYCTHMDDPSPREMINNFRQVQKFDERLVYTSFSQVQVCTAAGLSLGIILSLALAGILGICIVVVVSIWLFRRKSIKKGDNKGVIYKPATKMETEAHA
- assay: stopped-flow CO2 hydration assay
- Format: biochemical
- cond: CO2 […], […] HEPES pH […] NaClO4, […] h preincubation at room temperature; read-out: KI (μM)^a,b / hCA XII
parameter: Ki (µM)
Number only, in µM; omit the unit.

CCOP1(=O)CC=Cc2cc(Br)ccc2O1 (stereo not drawn) ... 1.6
O=P1(O)CC=Cc2cc(Br)ccc2O1 ... 0.96
O=P1(O)CC=Cc2cc(I)ccc2O1 ... 0.68
O=P1(O)CC=Cc2cc(Cl)cc(Cl)c2O1 ... 1.7
O=[N+]([O-])c1ccc2c(c1)C=CCP(=O)(O)O2 ... 1
CCOP1(=O)CC=Cc2cc(Cl)cc(Cl)c2O1 (stereo not drawn) ... 3.4
COc1cccc2c1OP(=O)(O)CC=C2 ... 1.2
O=P1(O)CC=Cc2cccc(Br)c2O1 ... 1.8
CCOP1(=O)CC=Cc2cc([N+](=O)[O-])ccc2O1 (stereo not drawn) ... 0.95
CCOP1(=O)CC=Cc2cc(I)ccc2O1 (stereo not drawn) ... 2.4

May I ask what Ki has been recorded for CCOP1(=O)CC=Cc2cccc(OC)c2O1 (stereo not drawn) ?
7.4

May I ask what Ki has been recorded for CCOP1(=O)CC=Cc2cccc(Br)c2O1 (stereo not drawn) ?
3.3

* * *

- tgt: hCA IX (Homo sapiens, UniProt Q16790)
- Construct: gene CA9; recombinant, obtained in-house
- assay: stopped-flow CO2 hydration assay
- Assay type: biochemical
- cond: CO2 […], […] HEPES pH […] NaClO4, […] h preincubation at room temperature; read-out: KI (μM)^a,b / hCA IX
Threshold 1 µM: Ki strictly smaller gives 1, otherwise -1.

Completed entries (count: 4):
CCOP1(=O)CC=Cc2cc(I)ccc2O1 (stereo not shown) ... -1
O=P1(O)CC=Cc2cc(I)ccc2O1 ... 1
CCOP1(=O)CC=Cc2cc(Br)ccc2O1 (stereo not shown) ... 1
CCOP1(=O)CC=Cc2ccccc2O1 (stereo not shown) ... 1

Find out if reported Ki for O=P1(O)CC=Cc2cccc(Br)c2O1 is less than 1 µM
-1

Find out if reported Ki for O=[N+]([O-])c1ccc2c(c1)C=CCP(=O)(O)O2 is less than 1 µM
1

Find out if reported Ki for O=P1(O)CC=Cc2cc(Cl)cc(Cl)c2O1 is less than 1 µM
1

Find out if reported Ki for CCOP1(=O)CC=Cc2cc(Cl)cc(Cl)c2O1 (stereo not shown) is less than 1 µM
-1

Find out if reported Ki for CCOP1(=O)CC=Cc2cccc(OC)c2O1 (stereo not shown) is less than 1 µM
-1

Find out if reported Ki for CCOP1(=O)CC=Cc2cc([N+](=O)[O-])ccc2O1 (stereo not shown) is less than 1 µM
-1

Find out if reported Ki for CCOP1(=O)CC=Cc2cccc(Br)c2O1 (stereo not shown) is less than 1 µM
-1

Find out if reported Ki for COc1cccc2c1OP(=O)(O)CC=C2 is less than 1 µM
-1
